tested on: HKR1
measurement protocol: pooled miR-30 sensor sort-seq; sequence = guide strand; further: reference of the scale not given here
measurement context: shRNA
measurement label: sensor-assay potency score (higher = more potent)

> print(dat)
                       seq  result.value
 1  TACCAGTACAGTCTCATGCATA        -0.938
 2  TTGATTTCTCCAAATCCTGAGA        -0.892
 3  TTTGGTATCTAGCAATGGCTGA        -0.389
 4  TTGACTCCTTGATAAAGCCTGG        -0.606
 5  TAACTTAGCACAAAAGCCTTGC         0.138
 6  TACTTTGTCTGTTTCCTCTAGA         0.778
 7  TTAACTTAGCACAAAAGCCTTG        -0.326
 8  TTAAGGTTTGACTTCAGGCTAA        0.0194
 9  ATAAACTTGAAAACAGCTGAGA         -0.36
10  TTGACTTCCACGTAAAGCCTCG        -0.345

====

Let's look at some sequences and their measured sensor-assay potency score (higher = more potent).
tested on: GPRC5C
measurement protocol: pooled miR-30 sensor sort-seq; sequence = guide strand
measurement context: shRNA
measurement label: sensor-assay potency score (higher = more potent)

> print(dat)
                      seq  result.value
1  TTCTTGCCGTCTTTCGGCGGTG         -1.04
2  ATGATGGTGAGCACAAACGTGG         -1.32
3  ATGGTGAGCACAAACGTGGTGA         -0.43
4  TTCGGACGGAACTTTGTGCATC        -0.913
5  AAGACCTGAGAGTTCTTGCCGT           0.1
6  TGAGGTTGCAGGAATCTCCAGA         0.399
7  TTGGTGTCCTGCACAAAGGGGA         -0.48
8  TCCTTCGGACGGAACTTTGTGC        -0.974

====

tested on: CROT
measurement protocol: pooled miR-30 sensor sort-seq; sequence = guide strand
measurement context: shRNA
measurement label: sensor-assay potency score (higher = more potent)

> print(dat)
                      seq  tested.on  result.value
1  TTGTAACATCTTTTGCTGCCGC       CROT        -0.495
2  TATACCAGTAAACTACTCTGAA       CROT         0.286
3  TTCAAGTGAAGGAACAGGCAGT       CROT         0.589
4  TTGTCTGAGAAGCTCTGGCGGG       CROT        -0.935
5  TAGAGGAGTATTTCCAACTTTA       CROT        -0.214
6  TTTCATAGCAACAACCAGGGTG       CROT         0.143
7  TTTTCTTATATTCTTCTTGATT       CROT         -1.35
8  TAGCATTCGGAATTGATTCATA       CROT        -0.712
9  TTCATAGCAACAACCAGGGTGT       CROT         0.163

====

tested on: FAM127A
measurement protocol: pooled miR-30 sensor sort-seq; sequence = guide strand
measurement context: shRNA
Returns one of Criterion met or Criterion not met; Criterion met when sensor-assay potency score (higher = more potent) is >= -1.

> print(dat)
                      seq       answer.label
1  AAAGACTCGCTTCATCTCGGCC  Criterion not met
2  ATCGCCGTCAAACGTCTCGGGA  Criterion not met
3  TTCATCTCGGCCAGAAAGCCCC      Criterion met
4  TCGCTGGAGAACGTGTTCTCGT  Criterion not met
5  TCGGTCGGTATCGCCGTCAAAC  Criterion not met
6  TATCGCCGTCAAACGTCTCGGG      Criterion met
7  TGTAGGAGCCCGTCTGCACGAT  Criterion not met
